- testName: chemical genetic growth profiling, strain panel (AID 1159580);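 also: tested at 20 µM; growth read once vehicle control cultures reached saturation at 30 °C; 1 = growth at the plate median or of vehicle wells; lower values mean less growth of the strain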
- assayContext: S. cerevisiae deletion strains, growth OD, locus YER002W, strain NOP16, hits give low values
Hit rate of the full screen: of about 5,500 compounds, about 2,000 (36%) were called active. Inconclusive results (about 18%) are left out. Some of the results follow.
Recorded normalized growth, one value per entry.

CCCCOc1cc(CC2CNC(=O)N2)ccc1OC (stereo unspecified) : 1.01 (inactive)
[N-]=[N+]=Nc1ccc(C(=O)CSC[C@H](NC(=O)CC[C@H](N)C(=O)O)C(=O)NCC(=O)O)cc1 : 0.989 (inactive)
CNCCC=C1c2ccccc2CCc2ccccc21 : 1.03 (inactive)
CN(C)CCC=C1c2ccccc2CCc2ccccc21 : 1.01 (inactive)
COCCOC(=O)C1=C(C)NC(C)=C(C(=O)OC(C)C)C1c1cccc([N+](=O)[O-])c1 (stereo unspecified) : 0.993 (inactive)

Any idea what normalized growth was measured for CN(C)CCC=C1c2ccccc2C=Cc2ccccc21 ?
1.04 (inactive)

Any idea what normalized growth was measured for COc1ccc2c(c[n+](C)c3c4cc5c(cc4ccc23)OCO5)c1OC ?
0.58 (active)

Any idea what normalized growth was measured for COC(=O)C1=C(C)NC(C)=C(C(=O)OC)C1c1ccccc1[N+](=O)[O-] ?
1 (inactive)

Any idea what normalized growth was measured for COC(=O)N1CCN(C(=O)Cc2ccc(Cl)c(Cl)c2)C(CN2CCCC2)C1 (stereo unspecified) ?
0.995 (inactive)

Any idea what normalized growth was measured for Cc1cc(NC(=O)Nc2ccc3c(ccn3C)c2)sn1 ?
0.992 (inactive)

Any idea what normalized growth was measured for CN(C)CC/C=C1\c2ccccc2COc2ccccc21 ?
1.01 (inactive)

----------
- testName: chemical genetic growth profiling, strain panel (AID 1159580)
- assayContext: S. cerevisiae deletion strains, growth OD, locus YAL030W, strain snc1
The campaign covered roughly 5,500 compounds. About 2,000 (36%) were called active. Another 18% or so got no clear call; they are omitted. No stated cut-off is given here; in the data, active means normalized growth mostly below about 0.91 (no sharp cut-off); inconclusive means no clear call, values can overlap the other calls; inactive means mostly above about 0.92. Some of the results follow.
Pick from 1 (yes) = active, 0 (no) = inactive when you respond.

Sample answers from the record:
CC(C)(O)[C@@H]1CC[C@](C)([C@H]2[C@@H](O)C[C@@]3(C)C4C[C@H](O[C@@H]5O[C@H](CO)[C@@H](O)[C@H](O)[C@H]5O)C5C(C)(C)[C@@H](O[C@@H]6OC[C@@H](O)[C@H](O)[C@H]6O)CC[C@@]56C[C@@]46CC[C@]23C)O1 (stereo partly specified) : 0 (no)
Cn1c(=O)c2[nH]c(C3CCCC3)nc2n(C)c1=O : 0 (no)
S=c1ccss1 : 0 (no)

Please share the test call associated with O=C(O)/C=C(\CC(=O)O)C(=O)O .
0 (no)

Please share the test call associated with C/C(=C\C(=O)OCCCCCCCCC(=O)O)C[C@@H]1OC[C@H](C[C@@H]2O[C@H]2[C@@H](C)[C@H](C)O)[C@@H](O)[C@H]1O .
0 (no)

Please share the test call associated with CN(C)CCC=C1c2ccccc2C=Cc2ccccc21 .
0 (no)

Please share the test call associated with CC(=O)O[C@@H]1CC2C(C)(C)[C@H](O)C[C@H](O)[C@]2(C)C2CC[C@@]3(C)[C@H](c4ccoc4)OC(=O)[C@H]4O[C@]43[C@@]21C (stereo partly specified) .
0 (no)

----------
- testName: chemical genetic growth profiling, strain panel (AID 1159580)
- assayContext: S. cerevisiae deletion strains, growth OD, locus YHR013C, strain ard1, hits give low values
Hit rate of the full screen: of about 5,500 compounds, about 2,000 (36%) were called active. Inconclusive results (about 18%) are left out. The list shows a part of the results.
Quick rule for you: normalized growth under 1 gets MET, anything else gets NOT MET.

CCn1cc(C(=O)O)c(=O)c2cc(F)c(N3CCNCC3)cc21 : MET

Please examine the following record next.
Hello, is normalized growth of the following molecule strictly smaller than 1? CCN1CCN(c2cc3c(cc2F)c(=O)c(C(=O)O)cn3C2CC2)CC1
NOT MET

----------
- testName: chemical genetic growth profiling, strain panel (AID 1159580)
- assayContext: S. cerevisiae deletion strains, growth OD, locus YFR028C, strain CDC14, hits give low values
Among all 5,500 compounds or so, about 2,000 (36%) were called active. About 18% were inconclusive and are not listed. The list shows a part of the results.
resultType: normalized growth

Cc1cc(C(=O)N(c2ccccc2)C(C)C2CC2)c(Cl)cc1Cl (stereo not drawn) : 0.979 (inactive)

Any idea what normalized growth was measured for CC(C)(C)c1csc(NC(=O)c2ccc(Cl)cc2Cl)n1 ?
0.975 (inactive)

Any idea what normalized growth was measured for CC(C)(C)c1csc(NNC(=O)c2ccc(Cl)cc2)n1 ?
0.96 (inactive)

----------
- testName: chemical genetic growth profiling, strain panel (AID 1159580);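 also: tested at 20 µM; growth read once vehicle control cultures reached saturation at 30 °C; 1 = growth at the plate median or of vehicle wells; lower values mean less growth of the strain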
- assayContext: S. cerevisiae deletion strains, growth OD, locus YDR392W, strain spt3
Among all 5,500 compounds or so, about 2,000 (36%) were called active. Inconclusive results (about 18%) are left out. No stated cut-off is given here; in the data, active means normalized growth mostly below about 0.91 (no sharp cut-off); inconclusive means no clear call, values can overlap the other calls; inactive means mostly above about 0.92. Some of the results follow.
Pick from active, inactive when you respond.

Sample answers from the record:
COc1ccc(-c2cc(=O)c3c(OC(C)=O)cc(OC(C)=O)cc3o2)cc1 : active
CC(=O)O[C@H]1C[C@@]2(C)[C@H](c3ccoc3)OC(=O)[C@H]3O[C@]32[C@@]2(C)C1[C@]1(C)C(C[C@H]2OC(C)=O)C(C)(C)[C@H](OC(C)=O)C[C@@H]1OC(C)=O (some centres not stated) : inactive
CC(=O)Oc1cc(-c2coc3cc(OC(C)=O)c(OC(C)=O)c(OC(C)=O)c3c2=O)cc(OC(C)=O)c1OC(C)=O : inactive
CC(C)(O)[C@@H]1CC[C@](C)([C@H]2[C@@H](O)C[C@@]3(C)C4C[C@H](O[C@@H]5O[C@H](CO)[C@@H](O)[C@H](O)[C@H]5O)C5C(C)(C)[C@@H](O[C@@H]6OC[C@@H](O)[C@H](O)[C@H]6O)CC[C@@]56C[C@@]46CC[C@]23C)O1 (some centres not stated) : inactive
CC(=O)O[C@@H]1CC2C(C)(C)C(=O)CC[C@]2(C)C2CC[C@@]3(C)[C@H](c4ccoc4)OC(=O)C4OC43[C@@]21C (some centres not stated) : inactive
[N-]=[N+]=CC(=O)OCC(N)C(=O)O (configuration not stated) : inactive

Please share the test call associated with CC(=O)Oc1ccc(-c2cc(=O)c3c(OC(C)=O)cc(OC(C)=O)cc3o2)cc1 .
inactive

----------
- testName: chemical genetic growth profiling, strain panel (AID 1159580);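 also: tested at 20 µM; growth read once vehicle control cultures reached saturation at 30 °C; 1 = growth at the plate median or of vehicle wells; lower values mean less growth of the strain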
- assayContext: S. cerevisiae deletion strains, growth OD, locus YLR342W, strain FKS1 (second series)
The whole screen tested about 5,500 compounds, of which about 2,000 (36%) were called active. Another 18% or so got no clear call; they are omitted. Rule as the data show it: active = normalized growth mostly below about 0.91 (no sharp cut-off); inconclusive = no clear call, values can overlap the other calls; inactive = mostly above about 0.92. This is one part of the list.
Pick from active, inactive when you respond.

O=c1[nH]c2cc(Cl)c(Cl)cc2[nH]c1=O : inactive
CC(=O)Nc1ccc(O)cc1 : inactive

Please share the test call associated with OC1C(O)C(O)C(O)C(O)C1O (stereo not drawn) .
inactive

Please share the test call associated with COc1ccc(-c2cc(=O)c3cc(OC)ccc3o2)cc1 .
inactive

Please share the test call associated with COC(=O)C1=C(C)NC(C)=C(C(=O)OC)C1c1ccccc1[N+](=O)[O-] .
active

Please share the test call associated with CCn1cc(C(=O)O)c(=O)c2cc(F)c(N3CCNCC3)cc21 .
inactive

Please share the test call associated with Nc1ccc(C(=O)O)c(O)c1 (tested in a mixture with another compound) .
inactive

Please share the test call associated with COc1cc([C@@H]2c3cc4c(cc3[C@H](OC(C)=O)[C@H]3COC(=O)[C@H]23)OCO4)cc(OC)c1OC .
inactive

----------
Recorded normalized growth, one value per entry.
- testName: chemical genetic growth profiling, strain panel (AID 1159580);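 also: tested at 20 µM; growth read once vehicle control cultures reached saturation at 30 °C; 1 = growth at the plate median or of vehicle wells; lower values mean less growth of the strain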
- assayContext: S. cerevisiae deletion strains, growth OD, locus YML016C, strain PPZ1, hits give low values
In all, about 5,500 compounds went through this assay and about 2,000 (36%) were called active. Not shown: some 18% with an inconclusive outcome. The list shows a part of the results.
Just the number, please, no unit attached.

Some solved entries appear below for comparison.
CC(=O)O[C@H]1C[C@@]2(C)[C@H](c3ccoc3)OC(=O)[C@H]3O[C@]32[C@@]2(C)C1[C@]1(C)C(C[C@H]2OC(C)=O)C(C)(C)[C@H](OC(C)=O)C[C@@H]1OC(C)=O (stereo not given in full) : 0.984
COc1ccc(-c2cc(=O)c3c(OC(C)=O)cc(OC(C)=O)cc3o2)cc1 : 0.924
NCCc1cccc(O)c1 : 0.985
CC(=O)O.CC(=O)O.[Cd] : 0.224
CCCCCCc1ccc(O)cc1O : 0.947
COC(=O)C1=C(C)NC(C)=C(C(=O)OC)C1c1ccccc1[N+](=O)[O-] : 0.899
CC1=CCc2c(cc3oc(C)cc(=O)c3c2O)OC1 : 0.953
CC(=O)Nc1ccc(OC(=O)c2ccccc2O)cc1 : 0.977
O=C(O)/C=C(\CC(=O)O)C(=O)O : 0.986
O=C(/C=C/c1ccccc1)c1ccc(O)cc1 : 0.896

Any idea what normalized growth was measured for C[N+]1(CCCCC[N+]2(C)CCCC2)CCCC1 ?
1.01

Any idea what normalized growth was measured for NC(=O)CC[C@@H](N)C(=O)O ?
1.01

Any idea what normalized growth was measured for COc1ccc(-c2coc3cc(O)cc(O)c3c2=O)cc1 ?
0.444
